Taken from ChEMBL document CHEMBL1144191.

Entries annotated with measured IC50
Target Or System: Histamine H3 receptor (Homo sapiens, UniProt Q9Y5N1)
Sequence (Q9Y5N1 whole entry): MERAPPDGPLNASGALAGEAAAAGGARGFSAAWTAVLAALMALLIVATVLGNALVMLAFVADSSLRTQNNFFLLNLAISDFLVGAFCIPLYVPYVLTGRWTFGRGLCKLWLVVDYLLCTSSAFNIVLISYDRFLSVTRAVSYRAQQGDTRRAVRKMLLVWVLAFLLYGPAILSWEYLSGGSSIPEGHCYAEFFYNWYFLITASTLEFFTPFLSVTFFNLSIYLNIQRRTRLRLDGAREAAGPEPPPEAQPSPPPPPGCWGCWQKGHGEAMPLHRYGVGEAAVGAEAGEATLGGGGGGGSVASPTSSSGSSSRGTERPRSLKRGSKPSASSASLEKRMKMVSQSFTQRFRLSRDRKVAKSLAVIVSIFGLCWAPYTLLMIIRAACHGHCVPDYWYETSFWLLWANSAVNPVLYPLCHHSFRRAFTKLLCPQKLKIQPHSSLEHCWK
Assay: Inverse agonist activity at human cloned histamine H3 receptor assessed as inhibition of (R)-alpha-methylhistamine-induced [35S]GTPgammaS binding

Requested field: IC50. Item: "CN(CCN1CCCCC1)C(=O)N1CCC2(CC1)NC(=O)c1ccccc12"
53 nM

Please look up its IC50: "CN(CCN1CCCCC1)C(=O)N1CCC(Cc2ccccc2)CC1"
393 nM

Name the recorded IC50 for "CN(CCN1CCCCC1)C(=O)N1CCN(c2ccccc2)CC1" .
506 nM

Which value of IC50 has been reported for "CN(CCN1CCCCC1)C(=O)N1CCC2(CC1)NC(=O)c1ccccc1N2" in the records?
560 nM

Query: IC50; subject: "CN(CCN1CCCCC1)C(=O)N1CCC2(CC1)OC(=O)Nc1ccccc12"
> 1000 nM

GET /values?readout=IC50&item= "CN(CCN1CCCCC1)C(=O)N1CCc2ccccc2C1"
680 nM

For the molecule shown here, "CN(CCN1CCCCC1)C(=O)N1CCC2(CC1)CC(=O)c1ccccc12" , give the reported IC50.
43 nM

So what does the record say about IC50 for "CN(CCN1CCCCC1)C(=O)N1CCC(c2ccccc2)CC1" ?
893 nM

---

Assay: Plasma concentration in Sprague-Dawley rat at 10 mg/kg, po after 2 hrs
Assay type: ADME, organism-based
Set-up: dose 10 mg/kg, route oral
Condition: read-out: Drug uptake
Readout: concentration at 2 h (nM)
Provide only the numeric value, understood in nM.

Please report the recorded concentration at 2 h for "COc1ccc2c(c1)C(=O)O[C@]21CC[C@H](C(=O)N(C)CCN2CCCCC2)CC1" .
270

---

Assay: Half life in Sprague-Dawley rat at 3 mg/kg, po
Assay type: ADME, organism-based
Design: dose 3 mg/kg, route oral
Condition: in vivo
Readout: half-life (h)
Reply with just the number (in h).

// lookup half-life for "COc1ccc2c(c1)C(=O)O[C@]21CC[C@H](C(=O)N(C)CCN2CCCCC2)CC1"
1.4

---

Assay: Drug concentration in Sprague-Dawley rat cerebrospinal fluid at 1 mg/kg, iv after 10 mins
Format: ADME, organism-based
Design: dose 1 mg/kg, route intravenous
Condition: read-out: Drug uptake
Readout: concentration at 10 min (nM)
All answers are understood in nM, so give the number only.

concentration at 10 min for "CN(CCN1CCCCC1)C(=O)[C@H]1CC[C@@]2(CC1)OC(=O)c1ccccc12" ?
370

---

Entries and their CLhep predicted values follow.
Assay: Metabolic stability in cryopreserved human hepatocytes assessed as hepatic clearance by serum incubation method
Assay type: ADME, cell-based, Liver, Hepatocyte
Kindly answer with a numeric value in mL/min/kg, unit omitted.

[
  {
    "Mol Smiles": "COc1ccc2c(c1)C(=O)O[C@]21CC[C@H](C(=O)N(C)CCN2CCCCC2)CC1",
    "Readout": "CLhep predicted",
    "Unit Label": "mL/min/kg",
    "Measured": 18
  }
]

With those in mind, consider the next compound.
Please give the measured CLhep predicted for this compound: "CN(CCN1CCCCC1)C(=O)[C@H]1CC[C@@]2(CC1)OC(=O)c1ccccc12"
18

---

Target Or System: Histamine H3 receptor (Homo sapiens, UniProt Q9Y5N1)
Assay: Inverse agonist activity at human cloned histamine H3 receptor assessed as inhibition of (R)-alpha-methylhistamine-induced [35S]GTPgammaS binding
Readout: log10 IC50 (log10 of the value in nM)
// do not treat as linear: log10 of IC50, unit nM

[
  {
    "Mol Smiles": "CN(CCN1CCCCC1)C(=O)N1CCC2(CC1)c1ccccc1C(=O)N2C",
    "log10 IC50": 1.65
  },
  {
    "Mol Smiles": "CN(CCN1CCCCC1)C(=O)N1CCC2(CC1)OCc1ccccc12",
    "log10 IC50": 2.59
  },
  {
    "Mol Smiles": "CN(CCN1CCCCC1)C(=O)N1CCC(c2ccc3ccccc3c2)CC1",
    "log10 IC50": 2.04
  }
]

GET /values?readout=log10 IC50&item= "CN(CCN1CCCCC1)C(=O)N1CCN(c2cccc(Cl)c2)CC1"
2.47

Which log10 IC50 is listed for "CN(CCN1CCCCC1)C(=O)N1CCC2(CC1)Cc1ccccc1C(=O)O2" ?
2.58

---

Assay: Bioavailability in Sprague-Dawley rat at 3 mg/kg, po
Assay type: ADME, organism-based
Condition: in vivo
Readout: bioavailability

Value lookup for bioavailability; key = "COc1ccc2c(c1)C(=O)O[C@]21CC[C@H](C(=O)N(C)CCN2CCCCC2)CC1"
7%

---

Assay: Half life in Sprague-Dawley rat at 1 mg/kg, iv
Assay type: ADME, organism-based
Set-up: dose 1 mg/kg, route intravenous
Condition: in vivo
Readout: half-life (h)
Answer format: numeric, h implied, no suffix.

Which half-life is reported for this compound? "COc1ccc2c(c1)C(=O)O[C@]21CC[C@H](C(=O)N(C)CCN2CCCCC2)CC1"
1.4

---

Target Or System: Voltage-gated inwardly rectifying potassium channel KCNH2 (Homo sapiens)
Sequence (Q12809 whole entry): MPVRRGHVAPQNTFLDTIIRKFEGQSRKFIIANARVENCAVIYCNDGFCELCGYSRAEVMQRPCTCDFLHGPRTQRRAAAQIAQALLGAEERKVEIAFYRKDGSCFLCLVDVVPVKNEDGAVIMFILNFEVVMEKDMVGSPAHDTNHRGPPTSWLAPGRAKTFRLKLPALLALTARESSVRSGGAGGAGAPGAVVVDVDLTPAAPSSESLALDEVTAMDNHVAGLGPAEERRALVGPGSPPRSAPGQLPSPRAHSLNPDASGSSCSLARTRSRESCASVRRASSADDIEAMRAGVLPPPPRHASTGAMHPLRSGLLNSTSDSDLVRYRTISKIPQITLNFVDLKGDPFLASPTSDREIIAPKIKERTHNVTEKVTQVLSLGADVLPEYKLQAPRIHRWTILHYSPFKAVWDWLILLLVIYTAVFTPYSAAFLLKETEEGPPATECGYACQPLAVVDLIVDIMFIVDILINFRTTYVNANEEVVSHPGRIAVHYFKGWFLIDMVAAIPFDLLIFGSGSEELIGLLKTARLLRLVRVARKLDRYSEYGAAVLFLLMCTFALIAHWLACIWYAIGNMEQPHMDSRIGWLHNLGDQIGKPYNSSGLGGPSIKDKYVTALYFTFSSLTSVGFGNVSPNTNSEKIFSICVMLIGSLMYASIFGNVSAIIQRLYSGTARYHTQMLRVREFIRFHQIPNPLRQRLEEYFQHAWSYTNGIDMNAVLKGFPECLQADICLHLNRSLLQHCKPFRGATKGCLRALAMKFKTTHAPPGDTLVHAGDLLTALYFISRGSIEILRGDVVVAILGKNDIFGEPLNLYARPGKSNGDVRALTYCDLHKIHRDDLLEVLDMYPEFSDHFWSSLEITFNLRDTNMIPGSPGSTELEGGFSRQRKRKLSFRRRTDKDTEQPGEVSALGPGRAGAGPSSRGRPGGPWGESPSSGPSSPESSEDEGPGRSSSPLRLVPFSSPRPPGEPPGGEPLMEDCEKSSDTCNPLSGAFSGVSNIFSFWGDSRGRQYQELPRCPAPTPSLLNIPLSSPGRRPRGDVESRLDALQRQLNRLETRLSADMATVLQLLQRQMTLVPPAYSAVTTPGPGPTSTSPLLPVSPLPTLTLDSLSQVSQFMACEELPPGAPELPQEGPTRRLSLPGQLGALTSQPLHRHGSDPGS
Assay: Displacement of [35S]N-[(4R)-1'-[(2R)-6-cyano-1,2,3,4-tetrahydro-2-naphthalenyl]-3,4-dihydro-4-hydroxyspiro[2H-1-benzopyran-2,4'-piperidin]-6-yl]methanesulfonamide from human ERG in HEK293 cells
pIC50: −log10 of the molar value.
Readout: pIC50

Record lookup: for Voltage-gated inwardly rectifying potassium channel KCNH2 (Homo sapiens), what pIC50 belongs to "CN(CCN1CCCCC1)C(=O)[C@H]1CC[C@@]2(CC1)OC(=O)c1ccccc12" ?
< 5.00

---

Assay: Tmax in Sprague-Dawley rat at 3 mg/kg, po
Format: ADME, organism-based
Parameters: dose 3 mg/kg, route oral
Condition: in vivo
Readout: Tmax (min)
The reply should contain only the number, in min.

Look at this molecule and give its reported Tmax. "COc1ccc2c(c1)C(=O)O[C@]21CC[C@H](C(=O)N(C)CCN2CCCCC2)CC1"
18

---

Below, each of the molecules is paired with its reported CLhep predicted value.
Assay: Metabolic stability in cryopreserved rat hepatocytes assessed as hepatic clearance by serum incubation method
Type: ADME, cell-based, Liver, Hepatocyte
Note: unit mL/min/kg is implicit; provide only the numeric part.

[
  {
    "Mol Smiles": "COc1ccc2c(c1)C(=O)O[C@]21CC[C@H](C(=O)N(C)CCN2CCCCC2)CC1",
    "CLhep predicted / mL/min/kg": 54
  }
]

Endpoint output: CLhep predicted of "CN(CCN1CCCCC1)C(=O)[C@H]1CC[C@@]2(CC1)OC(=O)c1ccccc12" . Value?
59

---

Target Or System: Histamine H3 receptor (Homo sapiens)
Assay: Inverse agonist activity at human cloned histamine H3 receptor assessed as inhibition of (R)-alpha-methylhistamine-induced [35S]GTPgammaS binding
pIC50: −log10 of the molar value.
Decide using pIC50: a value greater than or equal to 7 is fulfilled, a smaller one is not fulfilled.

Observe how each entry below is paired with its result.
[
  {
    "Mol Smiles": "CN(CCN1CCCCC1)C(=O)N1CCC(O)(c2ccccc2)CC1",
    "Target Or System": "Histamine H3 receptor (Homo sapiens)",
    "Classification": "not fulfilled"
  },
  {
    "Mol Smiles": "CN(CCN1CCCCC1)C(=O)N1CCC(C(=O)c2ccccc2)CC1",
    "Target Or System": "Histamine H3 receptor (Homo sapiens)",
    "Classification": "not fulfilled"
  },
  {
    "Mol Smiles": "CN(CCN1CCCCC1)C(=O)N1CCC2(CC1)OC(=O)c1ccccc12",
    "Target Or System": "Histamine H3 receptor (Homo sapiens)",
    "Classification": "fulfilled"
  }
]

Read the next record carefully.
Is the recorded value of pIC50 equal to or greater than 7 for this molecule? "CN(CCN1CCCCC1)C(=O)N1CCC2(CC1)NC(=O)Cc1ccccc12"
not fulfilled
